# SYSTEM_TESTED: T1, Cynomolgus CD3 on Cyno CD3+ Jurkat cells (cynomolgus, UniProt Q95LI5 22-198)
# T1 construct: whole, on cells; CD3 on cells; also called cCD3
# EXPERIMENT_SUMMARY: cell binding cCD3, fold over background
MEASURED_ENDPOINT: Cell Binding cCD3 (FOB)
Write it as a number; the unit FOB goes unstated.

BINDER: ADI-42596 (antibody, V domains shown, also called Ab2) VH: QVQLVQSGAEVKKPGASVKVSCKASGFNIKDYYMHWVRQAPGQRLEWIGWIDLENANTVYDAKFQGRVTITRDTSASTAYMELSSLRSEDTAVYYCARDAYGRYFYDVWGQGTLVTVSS VL: DIVMTQSPDSLAVSLGERATINCKSSQSLLNARTRKNYLAWYQQKPGQPPKLLIYWASTRESGVPDRFSGSGSGTDFTLTISSLQAEDVAVYYCKQSYFRRTFGGGTKVEIK
MEASURED_ENDPOINT: Cell Binding cCD3 (FOB)
RESULT_NUMBER: 46

BINDER: ADI-45964 (antibody, V domains shown, also called Ab27) VH: QVQLVQSGAEVKKPGASVKVSCKASGFNIKDYYIHWVRQAPGQRLEWIGWIDLENANTVYDAKFQGRVTITRDTSASTAYMELSSLRSEDTAVYYCARDAYGRYFYDVWGQGTLVTVSS VL: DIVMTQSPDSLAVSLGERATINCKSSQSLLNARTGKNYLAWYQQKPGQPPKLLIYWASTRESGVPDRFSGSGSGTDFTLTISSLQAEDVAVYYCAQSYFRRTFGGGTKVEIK
MEASURED_ENDPOINT: Cell Binding cCD3 (FOB)
RESULT_NUMBER: 63

BINDER: ADI-45982 (antibody, V domains shown, also called Ab19) VH: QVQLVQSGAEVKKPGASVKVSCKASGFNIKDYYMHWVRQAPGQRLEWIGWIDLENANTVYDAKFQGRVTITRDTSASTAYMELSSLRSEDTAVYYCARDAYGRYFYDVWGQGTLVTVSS VL: DIVMTQSPDSLAVSLGERATINCKSSQSLLNARTGKNYLAWYQQKPGQPPKLLIYWASTRENGVPDRFSGSGSGTDFTLTISSLQAEDVAVYYCTQSYFRRTFGGGTKVEIK
MEASURED_ENDPOINT: Cell Binding cCD3 (FOB)
RESULT_NUMBER: 31

BINDER: ADI-46363 (antibody, V domains shown, also called Ab47) VH: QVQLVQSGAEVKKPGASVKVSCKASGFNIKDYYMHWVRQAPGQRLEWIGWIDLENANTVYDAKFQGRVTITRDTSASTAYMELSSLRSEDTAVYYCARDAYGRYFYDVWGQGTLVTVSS VL: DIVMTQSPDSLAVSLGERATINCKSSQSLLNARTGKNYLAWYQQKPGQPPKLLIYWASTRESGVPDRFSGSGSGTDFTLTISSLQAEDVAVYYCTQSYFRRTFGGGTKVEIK
MEASURED_ENDPOINT: Cell Binding cCD3 (FOB)
RESULT_NUMBER: 129

BINDER: ADI-45960 (antibody, V domains shown, also called Ab23) VH: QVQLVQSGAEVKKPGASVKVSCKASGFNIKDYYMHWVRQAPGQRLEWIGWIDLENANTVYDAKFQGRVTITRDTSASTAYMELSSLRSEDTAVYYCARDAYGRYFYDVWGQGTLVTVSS VL: DIVMTQSPDSLAVSLGERATINCKSSQSLLNARTGKNYLAWYQQKPGQPPKLLIYWASTRESGVPDRFSGSGSGTDFTLTISSLQAEDAAVYYCAQSYFRRTFGGGTKVEIK
MEASURED_ENDPOINT: Cell Binding cCD3 (FOB)
RESULT_NUMBER: 58

BINDER: ADI-45963 (antibody, V domains shown, also called Ab26) VH: QVQLVQSGAEVKKPGAPVKVSCKASGFNIKDYYMHWVRQAPGQRLEWIGWIDLENANTVYDAKFQGRVTITRDTSASTAYMELSSLRSEDTAVYYCARDAYGRYFYDVWGQGTLVTVSS VL: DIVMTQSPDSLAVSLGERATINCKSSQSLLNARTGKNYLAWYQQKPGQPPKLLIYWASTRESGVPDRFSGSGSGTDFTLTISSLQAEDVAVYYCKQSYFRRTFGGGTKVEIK
MEASURED_ENDPOINT: Cell Binding cCD3 (FOB)
RESULT_NUMBER: 69

Return reported Cell Binding cCD3 (FOB); argument: ADI-45968 (antibody, V domains shown, also called Ab4) VH: QVQLVQSGAEVKKPGASVKVSCKASGFNIKDYYMHWVRQAPGQRLEWIGWIDLENANTVYDAKFQGRVTITRDASASTAYMELSSLRSEDTAVYYCARDAYGRYFYDVWGQGTLVTVSS VL: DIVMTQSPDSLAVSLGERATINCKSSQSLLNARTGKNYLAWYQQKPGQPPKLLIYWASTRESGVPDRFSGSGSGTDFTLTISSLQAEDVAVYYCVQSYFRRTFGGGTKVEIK
18

Return reported Cell Binding cCD3 (FOB); argument: ADI-46361 (antibody, V domains shown, also called Ab45) VH: QVQLVQSGAEVKKPGASVKVSCKASGFNNKDYYMHWVRQAPGQRLEWIGWIDLENANTVYDAKFQGRVTITRDTSASTAYMELSSLRSEDTAVYYCARDAYGRYFYDVWGQGTLVTVSS VL: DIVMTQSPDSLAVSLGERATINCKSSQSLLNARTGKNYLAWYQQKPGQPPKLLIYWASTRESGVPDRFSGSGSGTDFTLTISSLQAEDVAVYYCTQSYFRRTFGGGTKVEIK
84

Return reported Cell Binding cCD3 (FOB); argument: ADI-45959 (antibody, V domains shown, also called Ab13) VH: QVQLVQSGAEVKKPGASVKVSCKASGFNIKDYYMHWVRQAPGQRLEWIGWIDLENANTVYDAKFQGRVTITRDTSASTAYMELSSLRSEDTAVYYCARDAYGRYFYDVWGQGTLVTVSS VL: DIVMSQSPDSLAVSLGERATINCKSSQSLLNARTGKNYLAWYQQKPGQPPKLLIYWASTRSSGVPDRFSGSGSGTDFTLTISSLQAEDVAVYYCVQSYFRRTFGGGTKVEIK
112

Return reported Cell Binding cCD3 (FOB); argument: ADI-45966 (antibody, V domains shown, also called Ab29) VH: QVQLVQSGAEVKKPGASVKVSCKASGFNIKDYYMHWVRQAPGQRLEWIGWIDLENANTVYDAKFQGRVAITRDTSASTAYMELSSLRSEDTAVYYCARDAYGRYFYDVWGQGTLVTVSS VL: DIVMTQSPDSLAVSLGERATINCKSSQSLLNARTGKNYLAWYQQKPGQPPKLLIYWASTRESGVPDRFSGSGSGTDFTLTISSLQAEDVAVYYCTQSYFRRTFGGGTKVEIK
27

Return reported Cell Binding cCD3 (FOB); argument: ADI-46376 (antibody, V domains shown, also called Ab39) VH: QVQLVQSGAEVKKPGASVKVSCKASGFNIKDYYMHWVRQAPGQRLEWIGWIDLENANTVYDAKLQGRVTITRDTSASTAYMELSSLGSEDTAVYYCARDAYGRYFYDVWGQGTPVTVSS VL: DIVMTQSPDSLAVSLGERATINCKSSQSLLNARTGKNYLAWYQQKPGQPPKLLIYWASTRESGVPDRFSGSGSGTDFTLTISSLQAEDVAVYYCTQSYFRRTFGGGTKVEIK
96
